Molecular target: CB1R (Homo sapiens)
Sequence (P21554 whole entry): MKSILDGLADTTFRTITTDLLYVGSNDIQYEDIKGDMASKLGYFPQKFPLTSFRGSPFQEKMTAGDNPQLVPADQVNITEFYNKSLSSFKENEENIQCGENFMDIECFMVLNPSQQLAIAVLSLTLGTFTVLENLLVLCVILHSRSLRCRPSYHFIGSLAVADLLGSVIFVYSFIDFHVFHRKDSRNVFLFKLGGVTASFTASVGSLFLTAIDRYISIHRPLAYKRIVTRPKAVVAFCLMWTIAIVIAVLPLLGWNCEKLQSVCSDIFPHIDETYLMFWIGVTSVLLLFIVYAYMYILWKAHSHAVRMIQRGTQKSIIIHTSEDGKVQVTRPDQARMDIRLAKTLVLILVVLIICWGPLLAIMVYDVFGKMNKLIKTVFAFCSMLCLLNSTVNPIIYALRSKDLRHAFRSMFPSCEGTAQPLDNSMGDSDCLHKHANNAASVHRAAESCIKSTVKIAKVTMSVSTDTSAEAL
Experiment: CB1R radioligand binding competition ([3H]CP55,940)
Set-up: host or cells: CHO-CB1 C3 cell line
Conditions: percentage displacement of specific [3H]CP 55,940 binding at 1 μM, n = 2
Each entry below carries its reported CB1R % at 1 μM.
Value expressed in %; do not type the unit.

Worked cases, CB1R % at 1 μM given:
COMPOUND | SCALE UNIT | OBSERVED MEASUREMENT
CCCCCn1cc(C(=O)N2CCC[C@@H]2C(N)=O)c2ccccc21 [17b] | % | 3
CCCCCn1nc(C(=O)N2CCC[C@H]2C(N)=O)c2ccccc21 [17i] | % | 2
COC(=O)[C@H]1CCCCN1C(=O)c1cn(CCCCCF)c2ccccc12 [16d] | % | 24
COC(=O)[C@H]1CCCN1C(=O)c1nn(CCCCCF)c2ccccc12 [15l] | % | 1
NC(=O)[C@@H]1CCCN1C(=O)c1nn(CCCCCF)c2ccccc12 [17k] | % | 2

Sample NC(=O)[C@@H]1CCCN1C(=O)c1cn(Cc2ccc(F)cc2)c2ccccc12 [17g] ; CB1R % at 1 μM observed: 3

Sample COC(=O)[C@H]1CCCN1C(=O)c1nn(CC2CCCCC2)c2ccccc12 [15n] ; CB1R % at 1 μM observed: 2

Sample NC(=O)[C@@H]1CCCCN1C(=O)c1nn(CC2CCCCC2)c2ccccc12 [18m] ; CB1R % at 1 μM observed: 21

Sample NC(=O)[C@H]1CCCN1C(=O)c1cn(Cc2ccc(F)cc2)c2ccccc12 [17h] ; CB1R % at 1 μM observed: 4

Sample CCCCCn1cc(C(=O)N2CCCC[C@@H]2C(=O)OC)c2ccccc21 [16b] ; CB1R % at 1 μM observed: 18

Sample COC(=O)[C@H]1CCCCN1C(=O)c1cn(CC2CCCCC2)c2ccccc12 [16f] ; CB1R % at 1 μM observed: 37

Sample CCCCCn1nc(C(=O)N2CCCC[C@@H]2C(N)=O)c2ccccc21 [18j] ; CB1R % at 1 μM observed: 2

Sample NC(=O)[C@H]1CCCCN1C(=O)c1nn(Cc2ccc(F)cc2)c2ccccc12 [18p] ; CB1R % at 1 μM observed: 2

Sample NC(=O)[C@H]1CCCCN1C(=O)c1cn(Cc2ccc(F)cc2)c2ccccc12 [18h] ; CB1R % at 1 μM observed: 3

Sample NC(=O)[C@H]1CCCN1C(=O)c1nn(Cc2ccc(F)cc2)c2ccccc12 [17p] ; CB1R % at 1 μM observed: 4

Sample COC(=O)[C@H]1CCCN1C(=O)c1cn(CCCCCF)c2ccccc12 [15d] ; CB1R % at 1 μM observed: 3

Sample CCCCCn1cc(C(=O)N2CCC[C@H]2C(N)=O)c2ccccc21 [17a] ; CB1R % at 1 μM observed: 2

Sample NC(=O)[C@@H]1CCCN1C(=O)c1nn(Cc2ccc(F)cc2)c2ccccc12 [17o] ; CB1R % at 1 μM observed: 4

Sample COC(=O)[C@H]1CCCN1C(=O)c1cn(CC2CCCCC2)c2ccccc12 [15f] ; CB1R % at 1 μM observed: 32

Sample COC(=O)[C@H]1CCCCN1C(=O)c1cn(Cc2ccc(F)cc2)c2ccccc12 [16h] ; CB1R % at 1 μM observed: 35

Sample NC(=O)[C@@H]1CCCCN1C(=O)c1nn(CCCCCF)c2ccccc12 [18k] ; CB1R % at 1 μM observed: 3

Sample NC(=O)[C@@H]1CCCN1C(=O)c1cn(CC2CCCCC2)c2ccccc12 [17e] ; CB1R % at 1 μM observed: 6

* * *

Each entry below carries its reported EC50.
Target: CB2R (Homo sapiens, UniProt P34972)
Sequence (P34972 whole entry): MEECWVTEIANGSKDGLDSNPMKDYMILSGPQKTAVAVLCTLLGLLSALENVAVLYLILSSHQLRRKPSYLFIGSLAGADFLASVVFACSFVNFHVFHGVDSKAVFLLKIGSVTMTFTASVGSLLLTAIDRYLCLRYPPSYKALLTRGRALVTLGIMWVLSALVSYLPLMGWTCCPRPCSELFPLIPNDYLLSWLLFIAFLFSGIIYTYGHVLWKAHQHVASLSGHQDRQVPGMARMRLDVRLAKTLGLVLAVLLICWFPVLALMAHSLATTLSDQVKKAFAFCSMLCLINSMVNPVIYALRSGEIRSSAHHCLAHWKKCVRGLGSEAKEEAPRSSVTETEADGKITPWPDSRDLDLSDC
Assay: CB2R cAMP determination after forskolin stimulation in transfected HEK-293T cells
Type: cell-based
Design: expressed in transfected cells; host or cells: HEK-293T, transient transfection (PEI)
Settings: transfected HEK-293T cells, forskolin-stimulated cAMP; read-out: CB2R EC50 AMPc
Value expressed in nM; do not type the unit.

Worked cases, EC50 given:
MOLECULE | SCALE UNIT | EC50
CCCCCn1nc(C(=O)N2CCCC[C@H]2C(=O)OC)c2ccccc21 [16i] | nM | 0.03
NC(=O)[C@H]1CCCCN1C(=O)c1nn(Cc2ccc(F)cc2)c2ccccc12 [18p] | nM | 6.8
NC(=O)[C@@H]1CCCCN1C(=O)c1nn(Cc2ccc(F)cc2)c2ccccc12 [18o] | nM | 0.6

Consider the record given below.
Hey, CB2R (Homo sapiens, UniProt P34972) data for CCCC(C)(C)c1ccc2c(c1)OC(C)(C)[C@@H]1CC=C(C)C[C@@H]21 [JWH-133, reference compound] : EC50 came out at 6.73

* * *

Molecular target: CB2R (Homo sapiens, UniProt P34972)
Assay: CB2R radioligand binding competition ([3H]CP55,940)
Set-up: expressed in transfected cells; host or cells: HEK-293T (HEK-CB2 cell line)
Conditions: selectivity index, affinity ratio
RECORDED ENDPOINT: SI Ki CB1R/Ki CB2R

COMPOUND | EXPERIMENTAL SYSTEM | SI Ki CB1R/Ki CB2R
NC(=O)[C@H]1CCCCN1C(=O)c1cn(CCCCCF)c2ccccc12 [18d] | CB2R (Homo sapiens, UniProt P34972) | >100
NC(=O)[C@@H]1CCCN1C(=O)c1cn(CC2CCCCC2)c2ccccc12 [17e] | CB2R (Homo sapiens, UniProt P34972) | >100
COC(=O)[C@H]1CCCCN1C(=O)c1nn(CCCCCF)c2ccccc12 [16l] | CB2R (Homo sapiens, UniProt P34972) | >100
COC(=O)[C@@H]1CCCCN1C(=O)c1nn(CCCCCF)c2ccccc12 [16k] | CB2R (Homo sapiens, UniProt P34972) | 37
NC(=O)[C@@H]1CCCCN1C(=O)c1nn(CCCCCF)c2ccccc12 [18k] | CB2R (Homo sapiens, UniProt P34972) | >100

Sample CCCCCn1cc(C(=O)N2CCCC[C@@H]2C(N)=O)c2ccccc21 [18b] ; SI Ki CB1R/Ki CB2R observed: >100

Sample CCCCCn1nc(C(=O)N2CCC[C@@H]2C(=O)OC)c2ccccc21 [15j] ; SI Ki CB1R/Ki CB2R observed: >100

Sample NC(=O)[C@@H]1CCCCN1C(=O)c1cn(Cc2ccc(F)cc2)c2ccccc12 [18g] ; SI Ki CB1R/Ki CB2R observed: >100

Sample CCCCCn1nc(C(=O)N2CCCC[C@H]2C(=O)OC)c2ccccc21 [16i] ; SI Ki CB1R/Ki CB2R observed: 62

Sample CCCCCn1cc(C(=O)N2CCC[C@H]2C(=O)OC)c2ccccc21 [15a] ; SI Ki CB1R/Ki CB2R observed: 0.6

Sample NC(=O)[C@H]1CCCCN1C(=O)c1cn(CC2CCCCC2)c2ccccc12 [18f] ; SI Ki CB1R/Ki CB2R observed: >100

* * *

Biological target: CB2R (Homo sapiens, UniProt P34972)
Experiment: CB2R radioligand binding competition ([3H]CP55,940)
Set-up: expressed in transfected cells; host or cells: HEK-293T (HEK-CB2 cell line)
Conditions: selectivity index, affinity ratio
Each entry below carries its reported SI Ki CB1R/Ki CB2R.

COMPOUND | OBSERVED MEASUREMENT
COC(=O)[C@H]1CCCCN1C(=O)c1nn(Cc2ccc(F)cc2)c2ccccc12 [16p] | >100
COC(=O)[C@H]1CCCCN1C(=O)c1nn(CC2CCCCC2)c2ccccc12 [16n] | >100

Consider the record given below.
Sample NC(=O)[C@H]1CCCN1C(=O)c1cn(CC2CCCCC2)c2ccccc12 [17f] ; SI Ki CB1R/Ki CB2R observed: >100

* * *

Each entry below carries its reported log10 of Ki.
Target: CB2R (Homo sapiens)
Test: CB2R radioligand binding competition ([3H]CP55,940)
Set-up: expressed in transfected cells; host or cells: HEK-293T (HEK-CB2 cell line)
Conditions: displacement of [3H]CP 55,940, membranes of HEK-293T cells, n = 3
Remember, log10 of Ki, in nM.

Worked cases, log10 of Ki given:
COMPOUND | log10 of Ki
NC(=O)[C@@H]1CCCCN1C(=O)c1nn(CCCCCF)c2ccccc12 [18k] | 2.18
CCCCCn1nc(C(=O)N2CCCC[C@@H]2C(=O)OC)c2ccccc21 [16j] | 1.95
CCCCCn1nc(C(=O)N2CCCC[C@@H]2C(N)=O)c2ccccc21 [18j] | 2.16
NC(=O)[C@@H]1CCCN1C(=O)c1cn(CC2CCCCC2)c2ccccc12 [17e] | 2.46
COc1ccc2c(c1)c(CCN1CCOCC1)c(C)n2C(=O)c1cccc(Cl)c1Cl [GW405833, reference compound] | 0.76
CCCCCn1nc(C(=O)N2CCC[C@H]2C(=O)OC)c2ccccc21 [15i] | 1.88
NC(=O)[C@H]1CCCN1C(=O)c1cn(CC2CCCCC2)c2ccccc12 [17f] | 2.61
COC(=O)[C@H]1CCCN1C(=O)c1nn(CC2CCCCC2)c2ccccc12 [15n] | 2.00

Sample COC(=O)[C@@H]1CCCCN1C(=O)c1nn(CC2CCCCC2)c2ccccc12 [16m] ; log10 of Ki observed: 0.72

Sample COC(=O)[C@@H]1CCCCN1C(=O)c1cn(CCCCCF)c2ccccc12 [16c] ; log10 of Ki observed: 1.92

Sample COC(=O)[C@@H]1CCCCN1C(=O)c1nn(CCCCCF)c2ccccc12 [16k] ; log10 of Ki observed: 1.03

Sample CCCCCn1cc(C(=O)N2CCCC[C@H]2C(N)=O)c2ccccc21 [18a] ; log10 of Ki observed: 2.05

Sample CCCCCn1nc(C(=O)N2CCCC[C@H]2C(N)=O)c2ccccc21 [18i] ; log10 of Ki observed: 1.96

Sample COC(=O)[C@@H]1CCCN1C(=O)c1cn(CCCCCF)c2ccccc12 [15c] ; log10 of Ki observed: 1.86

Sample CCCCCn1cc(C(=O)N2CCCC[C@@H]2C(N)=O)c2ccccc21 [18b] ; log10 of Ki observed: 2.13

Sample NC(=O)[C@@H]1CCCCN1C(=O)c1cn(Cc2ccc(F)cc2)c2ccccc12 [18g] ; log10 of Ki observed: 2.06

Sample COC(=O)[C@H]1CCCCN1C(=O)c1nn(CC2CCCCC2)c2ccccc12 [16n] ; log10 of Ki observed: 2.21

Sample COC(=O)[C@H]1CCCCN1C(=O)c1cn(CCCCCF)c2ccccc12 [16d] ; log10 of Ki observed: 2.40

Sample NC(=O)[C@H]1CCCCN1C(=O)c1cn(CC2CCCCC2)c2ccccc12 [18f] ; log10 of Ki observed: 1.99

Sample CCCCCn1cc(C(=O)N2CCC[C@H]2C(=O)OC)c2ccccc21 [15a] ; log10 of Ki observed: 2.28
